Give measured GI50 for each item. Keep answers brief.
- System: BT-549
- methodNotes: NCI tumour cell line growth inhibition, 48 h
The source made the active and inactive calls. Rule as the data show it: active = GI50 up to about 1.1 µM and inactive = higher.

The molecule N/C(=N\c1ccc(Cl)cc1)NS(=O)(=O)c1ccc(S(=O)(=O)c2ccccc2)s1 showed GI50 equal to 17.6 µM (inactive)

GI50 reported for this molecule COc1cc2c(cc1OC)C(=O)C1(C2)[C@H](c2ccccc2)C2C(=O)c3cc(OC)c(OC)cc3C2[C@H]1c1ccccc1 (some centres undefined) : > 100 µM (inactive)

molecule CCC(CN(C)C)C(=O)c1ccco1 (centres undefined) , GI50 observed: > 100 µM (inactive)

Field GI50 (entry Cc1c(Cc2ccccc2)n(COCCCO)c(=O)[nH]c1=O ) reads > 100 µM (inactive)

// sample CN(C)CCOC1(Cc2ccc(Cl)cc2Cl)CCC(C(C)(C)C)CC1 (centres undefined) , its GI50 was 1.63 µM (inactive)

Form field GI50, entry COC(=O)/C=C(/C=C1/C(C#N)=C(N)N(c2ccc(Cl)cc2)C1(C)/C(=C\C(=O)OC)C(=O)OC)C(=O)OC (centres undefined) : 15.7 µM (inactive)

For record Oc1cccc2c1[nH]c1c(C3=C[C@@]4(O)CC/C=C\CCCCN5CC[C@@H]3[C@]3(CC6/C=C\CCCCN6[C@H]34)C5)nccc12 (some centres undefined) the listed GI50 is 1.81 µM (inactive)

The reported value for Cc1ccc2[nH]c3c(c2c1)CCC/C3=N/N=C(N)N in terms of GI50 is 14.5 µM (inactive)

Per the records, this molecule ( CCOC(=O)C1OC(=O)CC1C1(C(=O)OCC)C=CC(=O)O1 (centres undefined) ) has GI50 equal to > 100 µM (inactive)

----------
- Tested on: NCI-H522
- methodNotes: NCI tumour cell line growth inhibition, 48 h
The source made the active and inactive calls. Rule as the data show it: active = GI50 up to about 1.1 µM and inactive = higher.
endpointLabel: GI50

The compound CC1=CC(O)CC(C)(C)C1/C=C/C(C)=C/C=C/C(C)=C/C=C/C=C(C)/C=C/C=C(C)/C=C/C1=C(C)CC(O)CC1(C)C (centres undefined) on NCI-H522: GI50 was 15.2 µM (inactive)

Observed GI50, NCI-H522, Cc1nc(N)sc1C(=O)/C=C/c1ccc(/C=C/C(=O)c2sc(NC(=O)CCCCCCCCC(=O)Nc3nc(C)c(C(=O)/C=C/c4ccc(/C=C/C(=O)c5sc(N)nc5C)cc4)s3)nc2C)cc1 : 64.6 µM (inactive)

Reported NCI-H522 GI50 for item COC/C=C\[C@]1(O)CCCC[C@@H]1CC(OC)OC was 67.5 µM (inactive)

Record Nc1ccc(Oc2ccc(C3(c4ccc(Oc5ccc(N)c(O)c5)cc4)C4CC5CC(C4)CC3C5)cc2)cc1O ; system NCI-H522; GI50 = 1.73 µM (inactive)

# GI50 measured on NCI-H522 for item Clc1ccc(-c2cn3c(nc4ccccc43)c(-c3ccccc3)n2)cc1 = 13.8 µM (inactive)

// GI50 (NCI-H522) for O=C(/C=C/c1ccccc1)CCN1CCCCC1 = 21.4 µM (inactive)

Here CCOc1cc2cnc3c4cc(OC)c(OC)cc4ccc3c2cc1OC was tested on NCI-H522, and its GI50 came to 15.2 µM (inactive)

# value of GI50, NCI-H522, item NNC(=O)CCC(NS(=O)(=O)c1ccc(Cl)cc1)C(=O)NN (centres undefined) = > 100 µM (inactive)

Reported GI50 (NCI-H522) for entry NNc1ncnc2cccc(Cl)c12 is > 100 µM (inactive)

----------
- Tested on: NCI-H23
- methodNotes: NCI tumour cell line growth inhibition, 48 h
Calls of active or inactive are those of the source. Rule as the data show it: active = GI50 up to about 1.1 µM and inactive = higher.
Your reply should match one of these outcome classes. yes for active, no for inactive

QUERY: What was the test verdict on COc1cccc(-c2cc(O)c3ccccc3n2)c1 ?
RESULT: no

QUERY: # fetch the recorded call for CC(=O)O[C@H]1CC[C@@]2(C)[C@H](CC[C@@H]3[C@@H]2CC[C@]2(C)[C@@H](c4ccc(=O)oc4)C[C@H]4O[C@]342)C1 here
RESULT: yes

QUERY: What did the test return for O=C1CCN2C(=Nc3cccc4cccc2c34)N1 ?
RESULT: no

QUERY: Can you look up the reported call for O=C1C2C3SC(c4cc5ccccc5cc43)C2C(=O)N1c1ccccc1 (stereo not given) for me?
RESULT: no

QUERY: Just curious, what result did CCOC(=O)c1csc(NC(=O)CCN2CCN(C)CC2)n1 get here?
RESULT: no

----------
- Tested on: LOX IMVI
- methodNotes: NCI tumour cell line growth inhibition, 48 h
The source made the active and inactive calls. No stated cut-off is given here; in the data, active = GI50 up to about 1.1 µM and inactive = higher.
endpointLabel: GI50

The reported GI50 of the compound NNC(=O)CCC(NS(=O)(=O)c1ccc(Cl)cc1)C(=O)NN (stereo not given) was > 100 µM (inactive)

Per the records, this compound ( COc1cc2c(cc1C)NC(=O)/C2=C/c1c(Cl)n(-c2ccccc2)c2ccccc12 ) has GI50 equal to 7.33 µM (inactive)

Sure, the documented GI50 for CC(C)N(C(=O)C12C3(C(=O)C(C)(C)C)C4C5(C#N)C3C1(C(=O)C(C)(C)C)C5C42C(=O)C(C)(C)C)C(C)C (stereo not given) is > 100 µM (inactive)

The compound listed as CCOC(=O)CC(NCc1ccc(/N=C/c2nc3ccc(C(F)(F)F)cc3nc2-c2ccccc2)cc1)C(=O)OCC (stereo not given) has a reported GI50 of > 100 µM (inactive)

Short answer for O=C(NC(Cc1c[nH]c2ccccc12)C(=O)Nc1ccc(Br)cc1)OCc1ccccc1 (stereo not given) : GI50 was 9.06 µM (inactive)

So, CC(C)=CCc1c2c(c3occ(-c4ccc(O)cc4)c(=O)c3c1O)CC(C(C)(C)O)O2 (stereo not given) ? Its GI50 was 14.9 µM (inactive)

get_value(item= COc1ccc(N2C(=O)/C(=C/c3ccc(N(CCC#N)CCC#N)cc3C)N=C2/C=C\c2ccccc2)cc1 , readout=GI50) returns 28.8 µM (inactive)

For reference, reported GI50 for COc1c(Cl)cc(NC(=S)C#N)cc1Cl stands at 20 µM (inactive)

Lab note: measured GI50 of CCOC(=O)c1nc2cc(Cl)ccc2[nH]c1=O was > 100 µM (inactive)

Entry O=C(Oc1cncc(Cl)c1)c1cc2ccccc2sc1=O — recorded GI50 = 37.3 µM (inactive)

----------
I'd appreciate it if you could supply GI50 values for the items below.
- System: TK-10
- methodNotes: NCI tumour cell line growth inhibition, 48 h
Activity calls are given as the source filed them. Rule as the data show it: active = GI50 up to about 1.1 µM and inactive = higher.

Measured GI50, CC(C)(C)OC(=O)NCCNCCNc1ccccc1 : > 100 µM (inactive)

For record COC(=O)C(CC(=O)Nc1ccc(C)cc1)C(=O)C(=O)Nc1c(C(C)C)cccc1C(C)C (stereo not given) the listed GI50 is > 100 µM (inactive)

In plain terms, CC1=NN(c2cccc(Cl)c2)C2(SCC(=O)N2c2nc3ccccc3s2)/C1=C\c1ccc(N(C)C)cc1 (stereo not given) has a documented GI50 of 33 µM (inactive)

For record Cc1cc(C)nc(Sc2c([N+](=O)[O-])ncn2C)n1 the listed GI50 is > 100 µM (inactive)

Field GI50 (entry CCC1C(=O)OCc2c1cc1n(c2=O)CCC12OCCO2 (stereo not given) ) reads > 100 µM (inactive)

Looking up N/C(=N\c1ccc(Cl)cc1)NS(=O)(=O)c1ccc(S(=O)(=O)c2ccccc2)s1 , I see its GI50 listed as 21.2 µM (inactive)

Summary for this molecule, CC[C@@]1(O)C(=O)OCc2c1cc1n(c2=O)Cc2c-1nc1ccc(O)cc1c2[Si](C)(C)C(C)(C)C [AR-67] : GI50 is 0.443 µM (active)

Entry COc1cc(N)c2[nH]c3c(C)ccc(C)c3c2c1 — recorded GI50 = > 100 µM (inactive)

Note to self: GI50 recorded for Clc1ccc(-c2cn3c(nc4ccccc43)c(-c3ccccc3)n2)cc1 was 22 µM (inactive)

Notebook: COc1ccc(C(=O)c2sc(N(C)C)nc2-c2ccccc2)cc1 , GI50 read as 37.9 µM (inactive)

----------
- System: A549
- methodNotes: NCI tumour cell line growth inhibition, 48 h
The source made the active and inactive calls. Cut-off read from the data, not from the text of the source: active = GI50 up to about 1.1 µM and inactive = higher.
Reply using exactly one outcome from true (1) (active), false (0) (inactive)

QUERY: // param item: CCOc1cc2cnc3c4cc(OC)c(OC)cc4ccc3c2cc1OC ; yields the recorded call
RESULT: false (0)

QUERY: Recorded call for COc1ccc(C(=O)/C=C/c2ccc(OCCCOc3ccc(/C=C/C(=O)c4ccc(OC)cc4)cc3)cc2)cc1 ?
RESULT: false (0)

QUERY: Outcome? OCn1nc2c(C3OCCO3)cc3ccccc3n2c1=S
RESULT: false (0)

QUERY: Kindly provide the recorded test outcome for the following compound: O=C1CCC(=O)N1CNc1ccc2c(c1)S(=O)(=O)c1ccccc1O2
RESULT: false (0)

QUERY: Name the outcome recorded for CC(=O)O[C@H]1CC[C@@]2(C)[C@H](CC[C@@H]3[C@@H]2CC[C@]2(C)[C@@H](c4ccc(=O)oc4)C[C@H]4O[C@]342)C1 in the assay.
RESULT: true (1)
